run description: Cytotoxicity against mouse RAW264.7 cells assessed as cell viability at 5 uM after 24 hrs by MTT assay
Type: cell-based
run parameters: RAW264.7 cells, read-out: Activity
test readout: viability at 24 h, 5 µM

INPUT: // query viability at 24 h, 5 µM value for entry C=C1C(=O)[C@@]23[C@@H]4O[C@H]5O[C@@]2(O)[C@@H](O)[C@@H]2C(C)(C)CCC[C@]52[C@@H]3CC[C@@H]14 [XEROPHILUSIN B]
OUTPUT: > 97.5%

INPUT: // query viability at 24 h, 5 µM value for entry C=C1C(=O)[C@]23[C@H](O)[C@H]1CC[C@H]2[C@]12CCC[C@@](C)(COC(C)=O)[C@H]1[C@H](O)[C@]3(O)OC2 [LONGIKAURIN B]
OUTPUT: > 97.5%

INPUT: // query viability at 24 h, 5 µM value for entry C=C1C(=O)[C@]23[C@H](O)[C@H]1C[C@H](OC(C)=O)[C@H]2[C@]12CCCC(C)(C)[C@H]1C(=O)[C@]3(O)[C@H]2O [XEROPHILUSIN F]
OUTPUT: > 97.5%

INPUT: // query viability at 24 h, 5 µM value for entry C=C1C(=O)[C@@]23[C@@H]4O[C@H]5O[C@@]2(O)[C@@H](O)[C@@H]2C(C)(C)CCC[C@]52[C@@H]3[C@@H](OC(C)=O)C[C@@H]14 [XEROPHILUSIN A]
OUTPUT: > 97.5%

====

Tested on: RAW264.7
run description: Cytotoxicity against mouse RAW264.7 cells after 24 hrs by MTT assay
Format: cell-based
run parameters: RAW264.7, 24 h
Exercise: state measured IC50 for each of the molecules provided.
Record the value in µM, omitting the unit from your answer.

INPUT: What IC50 appears in the records for this molecule with RAW264.7? C=C1C(=O)[C@@]23[C@@H]4O[C@H]5O[C@@]2(O)[C@@H](O)[C@@H]2C(C)(C)CCC[C@]52[C@@H]3[C@@H](OC(C)=O)C[C@@H]14
OUTPUT: 11.3

INPUT: What IC50 appears in the records for this molecule with RAW264.7? C=C1C(=O)[C@]23[C@H](O)[C@H]1C[C@H](OC(C)=O)[C@H]2[C@]12CCCC(C)(C)[C@H]1C(=O)[C@]3(O)[C@H]2O
OUTPUT: 52.4

INPUT: What IC50 appears in the records for this molecule with RAW264.7? C=C1C(=O)[C@]23[C@H](O)[C@H]1CC[C@H]2[C@]12CCC[C@@](C)(COC(C)=O)[C@H]1[C@H](O)[C@]3(O)OC2
OUTPUT: 44.8

INPUT: What IC50 appears in the records for this molecule with RAW264.7? C=C1C(=O)[C@@]23[C@@H]4O[C@H]5O[C@@]2(O)[C@@H](O)[C@@H]2C(C)(C)CCC[C@]52[C@@H]3CC[C@@H]14
OUTPUT: 10.1
